# experimental target: BSA (Bos taurus, UniProt P02769)
# Sequence (P02769 25-607): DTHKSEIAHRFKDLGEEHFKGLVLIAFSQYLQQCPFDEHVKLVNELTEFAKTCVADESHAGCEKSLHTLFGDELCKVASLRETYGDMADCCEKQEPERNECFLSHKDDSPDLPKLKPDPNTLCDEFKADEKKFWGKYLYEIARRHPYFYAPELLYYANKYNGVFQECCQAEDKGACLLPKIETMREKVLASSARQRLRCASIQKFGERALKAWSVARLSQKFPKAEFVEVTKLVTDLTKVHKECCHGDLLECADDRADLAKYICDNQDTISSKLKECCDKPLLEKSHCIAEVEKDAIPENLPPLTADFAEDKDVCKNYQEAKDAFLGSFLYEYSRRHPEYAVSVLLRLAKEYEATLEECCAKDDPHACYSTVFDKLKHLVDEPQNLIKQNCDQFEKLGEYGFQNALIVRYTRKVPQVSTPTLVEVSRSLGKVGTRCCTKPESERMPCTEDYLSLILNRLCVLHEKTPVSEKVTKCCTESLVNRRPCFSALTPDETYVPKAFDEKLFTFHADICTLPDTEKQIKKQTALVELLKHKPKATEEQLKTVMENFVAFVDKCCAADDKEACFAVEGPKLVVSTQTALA
# experiment description: LSTDLPF-MS (APCI mass-spectrometry detection) Kd determination, BSA/fluorescein
# Assay type: binding, bovine
# setup conditions: weighted average of the two Kd measurements, read-out: weighted average of Kd

| smiles entry | experimental target | Kd |
| --- | --- | --- |
| O=C1OC2(c3ccc(O)cc3Oc3cc(O)ccc32)c2ccccc21 | BSA (Bos taurus, UniProt P02769) | 26 µM |

====

# experimental target: α1-acid glycoprotein (AGP) (Homo sapiens)
# Construct: Kd; [alprenolol]0=500 nM; 30 mM ammonium acetate p; Kd; other: MS detection
# Sequence (P02763 19-201): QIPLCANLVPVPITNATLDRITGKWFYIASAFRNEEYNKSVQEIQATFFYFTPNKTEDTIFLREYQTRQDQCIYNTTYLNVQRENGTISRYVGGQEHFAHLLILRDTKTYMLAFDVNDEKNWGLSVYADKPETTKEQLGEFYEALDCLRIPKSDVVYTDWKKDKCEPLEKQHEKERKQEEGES
# experiment description: LSTDLPF-MS (APCI mass-spectrometry detection) Kd determination, alprenolol/AGP
# Assay type: binding
# setup conditions: α1-acid glycoprotein (AGP) in buffer, pH 7.5, Kd, after 2-step screening compensation (FIG. 16C), [alprenolol]0=500 nM, 30 mM ammonium acetate pH 7.5

| compound | experimental target | readout units | Kd at 500 nM |
| --- | --- | --- | --- |
| C=CCc1ccccc1OCC(O)CNC(C)C (stereo not shown) [alprenolol, Alprenolol] | α1-acid glycoprotein (AGP) (Homo sapiens) | nM | 1800 |

====

# experimental target: BSA (Bos taurus, UniProt P02769)
# experiment description: LSTDLPF-based Kd determination with fluorescence detection, BSA/fluorescein
# Type: binding, bovine
# setup conditions: single experiment, non-linear regression of isotherm with Equation 5, [fluorescein]0=200 nM, 30 mM ammonium acetate pH 7.5, error = SD of regression, read-out: Kd
pKd: −log10 of the molar value.
outcome measure: pKd

| compound | numeric readout |
| --- | --- |
| O=C1OC2(c3ccc(O)cc3Oc3cc(O)ccc32)c2ccccc21 [fluorescein] | 4.64 |

src = patent US11506660B2
